As shown below, each of these molecules has a reported IC50 value.
Target: Recombinant STAT3 protein (STAT3 (G127-I722)) (Homo sapiens)
Construct: Recombinant STAT3 protein (STAT3 (G127-I722))
Sequence (P40763 127-722): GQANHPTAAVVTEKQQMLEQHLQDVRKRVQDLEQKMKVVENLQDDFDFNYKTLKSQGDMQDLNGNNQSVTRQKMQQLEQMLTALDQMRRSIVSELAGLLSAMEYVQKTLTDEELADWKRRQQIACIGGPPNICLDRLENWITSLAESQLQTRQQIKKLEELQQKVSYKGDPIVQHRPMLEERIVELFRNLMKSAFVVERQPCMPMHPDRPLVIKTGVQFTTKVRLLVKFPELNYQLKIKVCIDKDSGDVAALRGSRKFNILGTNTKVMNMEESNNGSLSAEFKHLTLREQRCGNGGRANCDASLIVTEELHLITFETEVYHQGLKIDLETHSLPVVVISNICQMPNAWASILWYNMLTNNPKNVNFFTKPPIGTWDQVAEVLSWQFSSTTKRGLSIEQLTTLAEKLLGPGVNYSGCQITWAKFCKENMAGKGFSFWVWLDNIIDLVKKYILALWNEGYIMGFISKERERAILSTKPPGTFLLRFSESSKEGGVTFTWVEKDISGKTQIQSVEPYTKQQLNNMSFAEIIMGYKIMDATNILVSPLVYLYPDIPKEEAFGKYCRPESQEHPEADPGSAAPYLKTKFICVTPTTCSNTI
Assay: STAT3 Fluorescence Polarization (FP) Assay
Type: binding
Details: STAT3 (G127-I722) 25 nM, probe 5-FAM-GpYLPQTV-NH2 2 nM, 45-minute incubation; read-out: STAT3 (FP assay IC50 class)

Worked examples, 4 molecules total:
O=C(N[C@H]1CC[C@H]2CC[C@@H](C(=O)N3CC(c4ccccn4)C3)N2C1=O)c1cc2cc(C(F)(F)P(=O)(O)O)ccc2s1    100 to 1000 nM
N#C[C@@H]1[C@@H](c2ccccc2)CN(C(=O)[C@@H]2CC[C@@H]3CCC[C@H](NC(=O)c4cc5cc([C@H](F)P(=O)(O)O)ccc5s4)C(=O)N32)C12CC2 (single isomer, unassigned)    1000 to 10000 nM
O=C(N[C@H]1CCCC[C@H]2CC[C@@H](C(=O)NCc3cnc4[nH]cnc4c3)N2C1=O)c1cc2cc(C(F)(F)P(=O)(O)O)ccc2s1    < 100 nM
CC[C@@H]1CC[C@H](NC(=O)c2cc3cc(C(F)P(=O)(O)O)ccc3s2)C(=O)N2[C@H](CC[C@H]2C(=O)N2CC(c3cnccc3OC)C2)C1 (some centres unmarked)    < 100 nM

Problem: Entry under review: CC(=O)N1CCOC2(C1)CN(C(=O)[C@@H]1CC[C@@H]3CCC[C@H](NC(=O)c4cc5cc(C(F)P(=O)(O)O)ccc5s4)C(=O)N31)C2 (some centres unmarked) . Reported IC50?
Solution: 1000 to 10000 nM

Problem: And then CC1C[C@H]2CC[C@@H](C(=O)N3CC(c4cccnc4)C3)N2C(=O)[C@@H](NC(=O)c2cc3cc(C(F)(F)P(=O)(O)O)ccc3s2)C1 (some centres unmarked) , what is it?
Solution: > 10000 nM

Problem: And then O=C(N[C@H]1CCC[C@H]2CC[C@@H](C(=O)N3CC(c4cccnc4)C3)N2C1=O)c1cc2cc(CP(=O)(O)O)c(F)cc2[nH]1 , what is it?
Solution: > 10000 nM

Problem: And then NC(=O)N1C[C@H](NC(=O)[C@@H]2CC[C@@H]3CCCC[C@H](NC(=O)c4cc5cc(C(F)P(=O)(O)O)ccc5s4)C(=O)N32)[C@@H](F)C1 (some centres unmarked) , what is it?
Solution: < 100 nM

Problem: And then CC(C)n1ccc(N2C(=O)N(C(=O)[C@@H]3CC[C@@H]4CCCC[C@H](NC(=O)c5cc6cc(C(F)P(=O)(O)O)ccc6s5)C(=O)N43)C3(CC3)C2=O)cc1=O (some centres unmarked) , what is it?
Solution: 1000 to 10000 nM

Problem: And then O=C(N[C@H]1CCC[C@H]2CC[C@@H](C(=O)N3CC(c4ccncc4)C3)N2C1=O)c1cc2cc(C(F)P(=O)(O)O)ccc2s1 (some centres unmarked) , what is it?
Solution: 100 to 1000 nM

Problem: And then CNc1ccncc1C1CN(C(=O)[C@@H]2CC[C@@H]3CCC[C@H](NC(=O)c4cc5cc(CP(=O)(O)O)ccc5s4)C(=O)N32)C1 , what is it?
Solution: < 100 nM

* * *

As shown below, each of these molecules has a reported pIC50 value.
Biological target: pY705-STAT3 in PBMC (Homo sapiens, UniProt P40763)
Construct: Cryopreserved Peripheral Blood Mononuclear Cells (PBMC) are from AllCells; host or cells: cryopreserved PBMC
Sequence (P40763 whole entry): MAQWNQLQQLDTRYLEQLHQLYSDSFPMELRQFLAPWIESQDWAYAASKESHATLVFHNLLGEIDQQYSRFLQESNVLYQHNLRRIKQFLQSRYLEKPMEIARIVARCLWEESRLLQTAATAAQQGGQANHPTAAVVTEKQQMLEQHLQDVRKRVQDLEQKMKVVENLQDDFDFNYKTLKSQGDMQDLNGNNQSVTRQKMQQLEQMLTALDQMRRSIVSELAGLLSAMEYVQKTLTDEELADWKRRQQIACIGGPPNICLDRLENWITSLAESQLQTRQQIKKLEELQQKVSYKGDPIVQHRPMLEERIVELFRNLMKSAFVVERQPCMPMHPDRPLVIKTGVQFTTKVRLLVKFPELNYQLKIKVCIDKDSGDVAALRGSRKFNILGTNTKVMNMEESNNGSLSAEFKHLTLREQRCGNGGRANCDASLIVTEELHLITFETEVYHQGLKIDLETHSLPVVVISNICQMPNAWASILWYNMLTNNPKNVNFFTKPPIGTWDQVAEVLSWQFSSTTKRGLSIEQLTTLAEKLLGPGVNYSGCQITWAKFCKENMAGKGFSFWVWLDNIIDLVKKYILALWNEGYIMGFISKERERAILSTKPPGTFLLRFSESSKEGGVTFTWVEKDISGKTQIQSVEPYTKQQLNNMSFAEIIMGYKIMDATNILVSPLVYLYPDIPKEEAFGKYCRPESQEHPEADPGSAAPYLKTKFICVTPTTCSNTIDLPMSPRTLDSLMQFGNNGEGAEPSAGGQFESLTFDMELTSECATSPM
Test: MSD-pSTAT-PBMC Assay (pSTAT3, IL-6 stimulated)
Format: cell-based
Conditions: pSTAT3, PBMC, compound 3 hrs, then 10 ng/mL IL-6 for 10 min; Table 1114
pIC50: −log10 of the molar value.

CCCC(=O)SCCOP(=O)(Oc1cccc2ccccc12)C(F)(F)c1ccc2sc(C(=O)N[C@H]3CCC[C@H]4CC[C@@H](C(=O)N5CC(c6cccnc6)C5)N4C3=O)cc2c1 (some centres unmarked)    > 7.00

Problem: Entry under review: CCCC(=O)SCCOP(=O)(Oc1ccccc1)C(F)(F)c1ccc2sc(C(=O)N[C@H]3CCC[C@H]4CC[C@@H](C(=O)N5CC(c6cccnc6)C5)N4C3=O)cc2c1 (some centres unmarked) . Reported pIC50?
Solution: > 7.00

* * *

Molecular target: Recombinant STAT6 protein (STAT6 (W123-T658)) (Homo sapiens)
Construct: Recombinant STAT6 protein (STAT6 (W123-T658))
Sequence (P42226 123-658): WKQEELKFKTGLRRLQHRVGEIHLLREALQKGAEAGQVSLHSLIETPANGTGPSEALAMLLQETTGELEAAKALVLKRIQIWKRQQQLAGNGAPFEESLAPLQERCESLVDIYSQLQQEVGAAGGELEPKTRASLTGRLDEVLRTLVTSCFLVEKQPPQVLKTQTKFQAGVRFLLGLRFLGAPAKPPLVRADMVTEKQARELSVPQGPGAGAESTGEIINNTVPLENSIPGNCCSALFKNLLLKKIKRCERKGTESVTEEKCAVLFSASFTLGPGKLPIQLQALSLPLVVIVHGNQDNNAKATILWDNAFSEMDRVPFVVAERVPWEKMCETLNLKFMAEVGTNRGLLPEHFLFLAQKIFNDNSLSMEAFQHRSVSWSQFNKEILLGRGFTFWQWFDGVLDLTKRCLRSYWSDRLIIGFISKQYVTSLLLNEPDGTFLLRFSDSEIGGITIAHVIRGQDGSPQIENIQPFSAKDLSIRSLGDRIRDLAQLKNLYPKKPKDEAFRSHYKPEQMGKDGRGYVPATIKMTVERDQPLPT
Assay: STAT6 Fluorescence Polarization (FP) Assay
Type: binding
Conditions: STAT6 (W123-T658) 250 nM, probe 5-FAM-Ap[…]-NH2 2 nM, 45-minute incubation; read-out: STAT6 (FP assay IC50 class)
pIC50: −log10 of the molar value.
measurement.name: pIC50

O=C(N[C@H]1CCC[C@H]2CC[C@@H](C(=O)N3CC(c4cc(F)ccc4F)C3)N2C1=O)c1cc2cc(C(F)P(=O)(O)O)ccc2s1 (some centres unmarked) [Compound 592]    4.52 to 5.52

Could you now consider this next compound?
Problem: Entry under review: Cn1cnnc1C1CN(C(=O)[C@@H]2CC[C@@H]3CCC[C@H](NC(=O)c4cc5cc(C(F)(F)P(=O)(O)O)ccc5s4)C(=O)N32)CCO1 (some centres unmarked) [Compound 1126] . Reported pIC50?
Solution: 5.52 to 6.52

* * *

As shown below, each of these compounds has a reported IC50 value.
Biological target: pY641-STAT6 in PBMC (Homo sapiens)
Construct: Cryopreserved Peripheral Blood Mononuclear Cells (PBMC) are from AllCells; host or cells: cryopreserved PBMC
Sequence (P42226 1-847): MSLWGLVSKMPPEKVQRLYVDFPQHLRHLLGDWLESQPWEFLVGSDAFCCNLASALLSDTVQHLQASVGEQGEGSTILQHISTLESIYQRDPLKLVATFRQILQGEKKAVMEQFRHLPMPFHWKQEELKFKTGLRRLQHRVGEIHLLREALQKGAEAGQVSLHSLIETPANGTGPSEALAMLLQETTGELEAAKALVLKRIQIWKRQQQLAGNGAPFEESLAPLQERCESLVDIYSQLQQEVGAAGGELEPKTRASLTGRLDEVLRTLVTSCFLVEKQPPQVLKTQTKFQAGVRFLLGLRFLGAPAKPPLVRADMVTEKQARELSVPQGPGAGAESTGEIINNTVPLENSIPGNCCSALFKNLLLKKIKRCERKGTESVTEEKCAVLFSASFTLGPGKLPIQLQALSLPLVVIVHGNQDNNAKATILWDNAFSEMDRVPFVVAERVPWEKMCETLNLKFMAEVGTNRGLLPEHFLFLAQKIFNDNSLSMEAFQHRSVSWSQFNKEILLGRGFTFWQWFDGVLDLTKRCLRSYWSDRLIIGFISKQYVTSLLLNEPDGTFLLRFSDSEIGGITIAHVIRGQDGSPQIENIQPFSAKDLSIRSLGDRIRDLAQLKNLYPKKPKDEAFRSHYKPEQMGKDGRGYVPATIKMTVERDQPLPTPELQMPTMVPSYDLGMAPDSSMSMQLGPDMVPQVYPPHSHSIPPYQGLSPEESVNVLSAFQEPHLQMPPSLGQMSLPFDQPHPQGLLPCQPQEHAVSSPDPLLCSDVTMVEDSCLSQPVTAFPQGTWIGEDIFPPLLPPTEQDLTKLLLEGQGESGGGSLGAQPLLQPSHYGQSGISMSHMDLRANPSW
Test: MSD-pSTAT-PBMC Assay (pSTAT6, IL-4 stimulated)
Format: cell-based
Conditions: STAT6, PBMC, compound 3 hrs, then 1 ng/mL IL-4 for 10 min; Table 115

CCCOC(=O)[C@H](C)NP(=O)(Oc1ccccc1)C(F)c1ccc2sc(C(=O)N[C@H]3CCCC[C@H]4CC[C@@H](C(=O)N5C(=O)N(c6cccnc6)C(=O)C56CCC6)N4C3=O)cc2c1 (some centres unmarked) [Compound 992]    100 to 1000 nM

Could you now consider this next compound?
Problem: Entry under review: CCCOC(=O)[C@H](C)NP(=O)(Oc1ccccc1)C(F)c1ccc2ccc(C(=O)N[C@H]3CCCC[C@H]4CC[C@@H](C(=O)N5C[C@@H](C#N)[C@H](c6ccccc6)C5)N4C3=O)cc2c1 (single isomer, unassigned) [Compound 316] . Reported IC50?
Solution: < 100 nM
